Source of measurements: PubChem BioAssay (NCI)

system: OVCAR-5 ovarian; experiment: NCI tumour cell line growth inhibition, 48 h
Where a SMILES comes first, the peptide text is derived from it. [ ]: non-standard residue; d: D form. The star is where a group is joined. ξ: configuration not given here. Propanoyl(3-(4-MeO-Ph)) = COc1ccc(CCC(=O)*)cc1; Thr(3ξ) = CC(O)[C@H](N)C(=O)O; dNMeL = CN[C@H](CC(C)C)C(=O)O; ξLac = CC(O)C(=O)O
Property: TGI; scope: individual compounds

>  <compound>
CCOC(=O)C1C[C@H]2CO[C@H](c3ccccc3)N2C1=O (stereo not given in full)

>  <measured.target>
OVCAR-5 ovarian

>  <TGI>
> 100 µM

$$$$
>  <compound>
COc1ccc(N=N/C(=N/NC(=O)c2cc(Cl)ccc2C(=O)c2ccccc2)c2ccc(N(CCC#N)CCC#N)cc2C)cc1

>  <measured.target>
OVCAR-5 ovarian

>  <TGI>
70 µM

$$$$
>  <compound>
CC1(C)O[C@H]2OC(CO)C(OS(C)(=O)=O)[C@H]2O1 (stereo not given in full)

>  <measured.target>
OVCAR-5 ovarian

>  <TGI>
> 100 µM

$$$$
>  <compound>
Cc1cc([N+](=O)[O-])ccc1NS(=O)(=O)c1cc(Cl)ccc1Cl

>  <measured.target>
OVCAR-5 ovarian

>  <TGI>
> 100 µM

$$$$
>  <compound>
CCCCNC(=S)c1ccc(OC(=O)Nc2ccc(Cl)cc2)cc1

>  <measured.target>
OVCAR-5 ovarian

>  <TGI>
> 100 µM

$$$$
>  <compound>
O=c1nc(NC(c2ccccc2)(c2ccccc2)c2ccccc2)ccn1CCO

>  <measured.target>
OVCAR-5 ovarian

>  <TGI>
> 100 µM

$$$$
>  <compound>
CC(C)(C)c1cc(/C=C/C(=O)CC(=O)/C=C/c2cc(C(C)(C)C)c(O)c(C(C)(C)C)c2)cc(C(C)(C)C)c1O

>  <measured.target>
OVCAR-5 ovarian

>  <TGI>
> 50 µM

$$$$
>  <compound>
O=C(O)c1ccc2c3c(ncnc13)-c1ccccc1C2=O

>  <measured.target>
OVCAR-5 ovarian

>  <TGI>
> 100 µM

$$$$
>  <compound>
CC(=O)C1COC(O)C1C (stereo not given)

>  <measured.target>
OVCAR-5 ovarian

>  <TGI>
59.2 µM

$$$$
>  <compound>
COc1ccc2nc3cc([N+](=O)[O-])ccc3c(NCCCN(CCO)CCO)c2c1

>  <measured.target>
OVCAR-5 ovarian

>  <TGI>
25.2 µM

$$$$
>  <compound>
CN(C)C(=S)/N=c1\ss/c(=N\C(=S)N(C)C)n1-c1ccc(Cl)cc1

>  <measured.target>
OVCAR-5 ovarian

>  <TGI>
> 100 µM

$$$$
>  <compound>
Cc1cccc(Cl)c1NC(=O)c1cnc(Nc2cc(N3CCOCC3)cc(N3CCOCC3)c2)s1

>  <measured.target>
OVCAR-5 ovarian

>  <TGI>
> 10 µM

$$$$
>  <compound>
O=CC(Br)C(Br)c1ccccc1 (stereo not given)

>  <measured.target>
OVCAR-5 ovarian

>  <TGI>
13.2 µM

$$$$
>  <compound>
COc1ccc2oc(=Nc3ccc(F)cc3)c(C(N)=O)cc2c1

>  <measured.target>
OVCAR-5 ovarian

>  <TGI>
> 100 µM

$$$$
>  <compound>
CO[C@H]1C[C@H](n2cc(C)c(=O)[nH]c2=O)O[C@@H]1CO

>  <measured.target>
OVCAR-5 ovarian

>  <TGI>
> 100 µM

$$$$
>  <compound>
Cc1cc2c(c(C(=O)NCCC(=O)N[C@@H](C)C(=O)OCc3ccccc3)c1)Oc1c(cc(C)cc1C(=O)NCCC(=O)N[C@@H](C)C(=O)OCc1ccccc1)S2

>  <measured.target>
OVCAR-5 ovarian

>  <TGI>
> 100 µM

$$$$
>  <compound>
COC(=O)[C@@H](NC(=O)[C@@H](CC(C)C)N(C)C(=O)[C@@H]1CCCN1C(=O)C(C)O)C(C)OC(=O)CCc1ccc(OC)cc1 (stereo not given in full) (H-[ξLac]P[dNMeL][Thr(3ξ)](Propanoyl(3-(4-MeO-Ph)))-OMe)

>  <measured.target>
OVCAR-5 ovarian

>  <TGI>
> 100 µM

$$$$
>  <compound>
COc1ccc2c(c1)c1nc3cc(C)c(C)cc3nc1n2CCN(C)C

>  <measured.target>
OVCAR-5 ovarian

>  <TGI>
2.3 µM

$$$$
>  <compound>
N#C/C(=C\Nc1ccccn1)C(=O)c1ccco1

>  <measured.target>
OVCAR-5 ovarian

>  <TGI>
> 100 µM

$$$$
>  <compound>
C[C@]1(C(=O)O)N[C@H](C(=O)O)CS1

>  <measured.target>
OVCAR-5 ovarian

>  <TGI>
> 1000 µM

$$$$

###

system: SW-620 colon; experiment: NCI tumour cell line growth inhibition, 48 h
Where a SMILES comes first, the peptide text is derived from it. [ ]: non-standard residue; d: D form. pGlu = O=C1CC[CH](C(=O)O)N1
recorded.endpoint: TGI

>  <compound>
CCC(=O)C(C)C(=O)C(=O)C(=O)OC (stereo not given)

>  <recorded.result>
> 45.7 µM

$$$$
>  <compound>
C[C@]12CC[C@H](O)CC1=CC[C@@H]1[C@@H]2CC[C@]2(C)c3nc(Cl)ccc3C[C@@H]12

>  <recorded.result>
> 100 µM

$$$$
>  <compound>
CCCCCC(O)(CCCCC)CCCCCCCCC1=C(O)c2ccccc2C(=O)C1=O

>  <recorded.result>
32 µM

$$$$
>  <compound>
O=C1OC(c2ccc(Cl)cc2)(c2ccc(Cl)cc2)c2c1ccc1ccccc21

>  <recorded.result>
> 100 µM

$$$$
>  <compound>
N#CCOc1cccc(C2(N3CC=CCC3)CCCCC2)c1

>  <recorded.result>
> 100 µM

$$$$
>  <compound>
CC(NC(=O)C(Cc1cnc[nH]1)NC(=O)C1CCC(=O)N1)C(N)=O (stereo not drawn) ([pGlu]-His-Ala-NH2; configuration not given here)

>  <recorded.result>
> 100 µM

$$$$
>  <compound>
CCCCC1(N=[N+]=[N-])C(=O)C2C=CC=C3c4ccccc4N(C1=O)C32 (stereo not given)

>  <recorded.result>
> 31.6 µM

$$$$
>  <compound>
COc1ccc(-c2cn(-c3cccc(C(=O)/C=C/c4ccc(O)c(OC)c4)c3)c(=O)[nH]2)cc1

>  <recorded.result>
6.22 µM

$$$$
>  <compound>
CCN(CC)CCCC(C)Nc1c2ccc(Cl)cc2nc2cc(OC)c(OC)cc12 (stereo not given)

>  <recorded.result>
7.54 µM

$$$$
>  <compound>
CC(=O)NC(C)c1ccc(N=NN2CCCC2)cc1 (stereo not given)

>  <recorded.result>
> 100 µM

$$$$

###

system: UACC-62 melanoma; experiment: NCI tumour cell line growth inhibition, 48 h

>  <compound>
COP(=O)(OC)c1ccc(NCc2cc(O)ccc2O)cc1

>  <TGI>
43.9 µM

$$$$
>  <compound>
C[C@H](CN1CC(=O)NC(=O)C1)N1CC(=O)NC(=O)C1

>  <TGI>
> 100 µM

$$$$
>  <compound>
NC(=O)c1ncn2c(=O)n(CCl)nnc12

>  <TGI>
> 100 µM

$$$$
>  <compound>
COc1cc2c(cc1OC(=O)c1cc3ccccc3[nH]1)N=C[C@@H]1CCCN1C2=O

>  <TGI>
0.707 µM

$$$$
>  <compound>
CC(C)(C)c1cc(/C=C/C(=O)CC(=O)/C=C/c2cc(C(C)(C)C)c(O)c(C(C)(C)C)c2)cc(C(C)(C)C)c1O

>  <TGI>
> 50 µM

$$$$
>  <compound>
O=S(=O)(O)c1cc(Nc2ccnc3ccccc23)c2c(S(=O)(=O)O)cc(S(=O)(=O)O)cc2c1

>  <TGI>
> 100 µM

$$$$
>  <compound>
c1ccc(CCN2CCN=C2Cc2ccccc2)cc1

>  <TGI>
> 100 µM

$$$$
>  <compound>
C[C@@H](NC(=O)[C@@H](CC(=O)N1CCC(N2CCCCC2)CC1)N1C(=O)[C@@H](N2C(=O)OC[C@@H]2c2ccccc2)[C@H]1/C=C/c1cccc(Cl)c1)c1ccccc1

>  <TGI>
3.88 µM

$$$$
>  <compound>
CNC(=O)c1ccccc1[S+]1c2cccc3cccc(c23)C(=O)N1C (centres undefined)

>  <TGI>
> 100 µM

$$$$

###

Property: TGI; scope: individual molecules
system: MDA-N; test: NCI tumour cell line growth inhibition, 48 h
recorded.endpoint: TGI

>  <molecule>
NC(=O)C[C@H](NC(=O)C1(NC(=O)[C@H](Cc2ccc(CP(=O)(O)O)cc2)NC(=O)C(=O)O)CCCCC1)C(=O)NCCCc1cccc2ccccc12

>  <recorded.result>
> 10 µM

$$$$
>  <molecule>
CCOC(=O)C1=NN(c2ccc(Cl)cc2)C2=CC(C)=NN(C)C(=S)N21

>  <recorded.result>
> 100 µM

$$$$
>  <molecule>
Clc1ccc2nc(CC3CCCC3)[nH]c2c1

>  <recorded.result>
38.5 µM

$$$$
>  <molecule>
Cc1[nH]c(=O)nc2nc3ccc(Cl)cc3c(NC(C)(CO)CO)c12

>  <recorded.result>
> 100 µM

$$$$
>  <molecule>
COC(=O)C(Cc1ccccc1)NC(=O)c1ccc(CNC(=S)NCc2cccc(CNC(=S)NCc3ccccc3)c2)cc1 (stereo not given)

>  <recorded.result>
> 62.5 µM

$$$$
>  <molecule>
COC12OC3CC4(C)C(=CC3OC(OC(C)C1O)C2O)CCC1C4CCC2(C)C(c3ccc(=O)oc3)CCC12O (stereo not given)

>  <recorded.result>
0.00434 µM

$$$$
>  <molecule>
CCn1c2ccc(C(=O)CCCN(C)C)cc2c2cc(C(=O)CCCN(C)C)ccc21

>  <recorded.result>
6.8 µM

$$$$
>  <molecule>
CC(=O)NC(C)c1ccc(N=NN2CCCC2)cc1 (stereo not given)

>  <recorded.result>
> 100 µM

$$$$
>  <molecule>
NC(=O)c1ncn2c(=O)n(CCl)nnc12

>  <recorded.result>
> 100 µM

$$$$
>  <molecule>
CCOC(=O)Cn1nnc2cc(Nc3nc4ccccc4nc3C(=O)OCC)ccc21

>  <recorded.result>
> 100 µM

$$$$
>  <molecule>
CCCCCCCCCCCCCCCCCCOc1ccc(/C=C/C2=[N+](CCCl)CCO2)cc1

>  <recorded.result>
> 100 µM

$$$$
>  <molecule>
CC(O)c1cc2c(s1)C(=O)c1scc(C(C)O)c1C2=O (stereo not given)

>  <recorded.result>
0.421 µM

$$$$
>  <molecule>
CNC(=O)c1ccccc1[S+]1c2cccc3cccc(c23)C(=O)N1C (stereo not given)

>  <recorded.result>
> 100 µM

$$$$
>  <molecule>
O=C(Cc1ccccc1)N=Nc1c(O)[nH]c2ccccc12

>  <recorded.result>
> 100 µM

$$$$
>  <molecule>
COc1c(-c2cccs2)oc2c(CC(=O)O)cccc2c1=O

>  <recorded.result>
> 100 µM

$$$$
>  <molecule>
N#C/C(=C\Nc1ccccn1)C(=O)c1ccco1

>  <recorded.result>
> 100 µM

$$$$
>  <molecule>
COc1cc(C2c3cc4c(cc3OC3(OC)COC(=O)C23)OCO4)cc(OC)c1OC (stereo not given)

>  <recorded.result>
0.319 µM

$$$$
>  <molecule>
O=C(O)C1C(=O)Oc2c(cccc2[N+](=O)[O-])C1O (stereo not given)

>  <recorded.result>
> 100 µM

$$$$
>  <molecule>
COP(=O)(OC)c1ccc(NCc2cc(O)ccc2O)cc1

>  <recorded.result>
> 63.2 µM

$$$$
>  <molecule>
COc1ccc(/C=N\NC(=O)Nc2cccc3ccccc23)cc1

>  <recorded.result>
> 100 µM

$$$$
>  <molecule>
Cc1c(O)c(=O)ccn1CCc1c[nH]c2ccccc12

>  <recorded.result>
> 100 µM

$$$$
>  <molecule>
COc1ccc2nc(NCN3C(=O)c4ccccc4C3=O)sc2c1

>  <recorded.result>
> 100 µM

$$$$
>  <molecule>
NC(=S)N/N=C/c1ccc(O)cn1

>  <recorded.result>
> 1180 µM

$$$$
>  <molecule>
c1ccc(CCN2CCN=C2Cc2ccccc2)cc1

>  <recorded.result>
> 100 µM

$$$$
>  <molecule>
CC(C)(C)c1cc(/C=C/C(=O)CC(=O)/C=C/c2cc(C(C)(C)C)c(O)c(C(C)(C)C)c2)cc(C(C)(C)C)c1O

>  <recorded.result>
> 50 µM

$$$$
